target.under.test: intracellular phosphorylation of EGFR (Tyr1068) in PC-9 cells (Homo sapiens, UniProt P00533, DEL746-750)
Sequence (P00533 with tags, fused parts or gaps DEL746-750): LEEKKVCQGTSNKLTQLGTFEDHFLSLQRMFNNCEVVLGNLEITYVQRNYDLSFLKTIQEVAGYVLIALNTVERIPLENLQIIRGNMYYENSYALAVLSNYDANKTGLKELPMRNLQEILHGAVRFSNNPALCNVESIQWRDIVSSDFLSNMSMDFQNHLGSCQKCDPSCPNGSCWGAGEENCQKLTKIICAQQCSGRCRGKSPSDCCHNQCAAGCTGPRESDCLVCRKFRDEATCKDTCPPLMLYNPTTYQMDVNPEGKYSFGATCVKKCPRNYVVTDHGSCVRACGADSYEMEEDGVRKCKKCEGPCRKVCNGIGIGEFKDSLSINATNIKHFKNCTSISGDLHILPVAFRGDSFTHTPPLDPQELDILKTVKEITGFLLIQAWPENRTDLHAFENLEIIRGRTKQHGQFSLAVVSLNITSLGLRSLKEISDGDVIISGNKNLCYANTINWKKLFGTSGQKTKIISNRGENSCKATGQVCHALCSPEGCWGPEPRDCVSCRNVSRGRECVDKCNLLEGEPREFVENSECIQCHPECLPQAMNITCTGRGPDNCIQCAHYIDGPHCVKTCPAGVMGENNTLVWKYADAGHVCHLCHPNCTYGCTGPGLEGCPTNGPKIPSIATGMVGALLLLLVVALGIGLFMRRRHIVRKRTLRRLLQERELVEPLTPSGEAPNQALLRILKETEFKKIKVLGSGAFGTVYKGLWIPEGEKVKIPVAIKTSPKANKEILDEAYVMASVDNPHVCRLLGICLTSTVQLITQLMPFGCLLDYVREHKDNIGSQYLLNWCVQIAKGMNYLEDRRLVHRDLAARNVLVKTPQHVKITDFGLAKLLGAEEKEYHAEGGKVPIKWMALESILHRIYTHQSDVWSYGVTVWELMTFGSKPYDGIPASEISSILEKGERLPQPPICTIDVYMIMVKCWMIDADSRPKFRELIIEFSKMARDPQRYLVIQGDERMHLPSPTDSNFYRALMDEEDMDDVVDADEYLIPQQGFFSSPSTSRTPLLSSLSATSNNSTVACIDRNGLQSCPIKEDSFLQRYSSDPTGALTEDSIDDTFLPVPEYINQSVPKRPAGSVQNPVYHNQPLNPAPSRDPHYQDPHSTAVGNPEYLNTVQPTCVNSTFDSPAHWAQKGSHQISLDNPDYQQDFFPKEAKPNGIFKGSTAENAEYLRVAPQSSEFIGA
experiment: PC-9 pEGFR AlphaLISA assay
condition.details: 4 hours incubation, read-out: Phos EGFR PC9 IC50
pIC50: −log10 of the molar value.

- compound: "CC(C)n1cc(-c2cc(OC3CCOCC3)c3c(Nc4ccc5ncsc5c4)ncnc3c2)cn1"
  pIC50: "7.30 to 8.00"
- compound: "CO[C@@H]1CN(C)CC[C@H]1Oc1cc(-c2cnn(C)c2)cc2ncnc(Nc3ccc4ncsc4c3)c12 (single isomer, unassigned) [Example A43]"
  pIC50: "7.30 to 8.00"
- compound: "C[C@H](Oc1cc(-c2cnn(C)c2)cc2ncnc(Nc3ccc4ncsc4c3)c12)C(=O)N1CCOCC1"
  pIC50: "≥ 8.00"
- compound: "Cn1cc(-c2cc(OC[C@@H]3CCCO3)c3c(Nc4ccc5ncsc5c4)ncnc3c2)cn1"
  pIC50: "7.30 to 8.00"
